test system: MDA-MB-231; assay: NCI tumour cell line growth inhibition, 48 h
The source made the active and inactive calls. Rule as the data show it: active = GI50 up to about 1.1 µM and inactive = higher.
I would appreciate it if you answered using one of these outcomes: T (active), F (inactive)

input: Would you mind telling me which call this test gave C=C(CO[Si](C)(C)C(C)(C)C)C(C)=O ?
output: F

input: Would you mind telling me which call this test gave CC(=O)OCC1OC(n2c(N)c(C#N)c(-c3ccc(C)cc3)c(C#N)c2=S)C(OC(C)=O)C(OC(C)=O)C1OC(C)=O (stereo not drawn) ?
output: F

input: Would you mind telling me which call this test gave Cc1nc(N)nc(N)c1-c1ccc(Cl)c(Cl)c1 ?
output: T

input: Would you mind telling me which call this test gave O=C(O)c1c(Cl)c(Cl)c(Cl)c(Cl)c1C(=O)Nc1ccc2cn[nH]c2c1 ?
output: F

input: Would you mind telling me which call this test gave O=C(c1cccc(C(=O)c2ccc3c4c(cccc24)C(=O)N(c2ccccc2)C3=O)c1)c1ccc2c3c(cccc13)C(=O)N(c1ccccc1)C2=O ?
output: F

---

test system: NCI-H522; assay: NCI tumour cell line growth inhibition, 48 h
Active and inactive are the calls of the source. No stated cut-off is given here; in the data, active = GI50 up to about 1.1 µM and inactive = higher.
GI50 values, listed per item

molecule | result
CCOC(=O)Nn1c(C)nnc1-c1ccccc1 | > 100 µM (inactive)

input: GET /values?readout=GI50&system=NCI-H522&item= c1csc(-c2csc(-c3ccsc3)c2)c1
output: 61.5 µM (inactive)

input: GET /values?readout=GI50&system=NCI-H522&item= C/C(CC(O)(C(F)(F)F)C(F)(F)F)=N\NC(N)=S
output: > 10 µM (inactive)

input: GET /values?readout=GI50&system=NCI-H522&item= NS(=O)(=O)c1cc(S(N)(=O)=O)c(NC(=O)N(c2ccccc2)c2ccccc2)c(Cl)c1Cl
output: 13.2 µM (inactive)

input: GET /values?readout=GI50&system=NCI-H522&item= Cc1c2c(C(N)=O)nccc2c(C)c2c1c1ccccc1n2Cc1ccccc1
output: 23.7 µM (inactive)

input: GET /values?readout=GI50&system=NCI-H522&item= CCOc1cccc(/C=N\c2ccccc2SSc2ccccc2/N=C\c2cccc(OCC)c2O)c1O
output: 2.95 µM (inactive)

input: GET /values?readout=GI50&system=NCI-H522&item= COc1ccc(C2S/C(=C\c3ccccc3)C(=O)N2NC(=O)Cc2ccccc2)cc1 (stereo not given)
output: > 100 µM (inactive)

input: GET /values?readout=GI50&system=NCI-H522&item= Cc1c(C(=O)CC(=O)C(=O)Nc2ccc(Cl)cc2)[n+]([O-])c2ccccc2[n+]1[O-]
output: > 100 µM (inactive)

input: GET /values?readout=GI50&system=NCI-H522&item= O=[N+]([O-])c1ccc(C2N3CCCCC3[C@H]3CCCCN23)cc1 (stereo not given in full)
output: > 100 µM (inactive)

input: GET /values?readout=GI50&system=NCI-H522&item= O=C1CCCC1CC(CN1CCOCC1)Sc1nnnn1-c1ccccc1 (stereo not given)
output: > 100 µM (inactive)

---

tested on: Malme-3M; experiment: NCI tumour cell line growth inhibition, 48 h
Active and inactive are the calls of the source. Rule as the data show it: active = GI50 up to about 1.1 µM and inactive = higher.
measurement-type: GI50

molecule | target-of-assay | result
O=C1CC(O)c2c1csc2Br (stereo not drawn) | Malme-3M | 30.8 µM (inactive)

input: Would you mind telling me what GI50 value was observed for O=c1ssc2c1Nc1c(ssc1=O)S2 ?
output: 5.9 µM (inactive)

input: Would you mind telling me what GI50 value was observed for CO[C@]12C[C@H](CNC(=O)c3cc(Br)c(Br)[nH]3)O[C@H]1NC(=O)N2 ?
output: > 100 µM (inactive)

input: Would you mind telling me what GI50 value was observed for O=C1/C(=C2\SCC(=O)N2c2ccccc2)SC(=S)N1c1ccccc1 ?
output: 38.2 µM (inactive)

input: Would you mind telling me what GI50 value was observed for COC(=O)c1cc(Br)c(C(=O)C(Cl)(Cl)Cl)[nH]1 ?
output: > 100 µM (inactive)

input: Would you mind telling me what GI50 value was observed for Cc1cc(NS(=O)(=O)c2ccc(NC(NC(=O)C(C(F)(F)F)C(F)(F)F)(C(F)(F)F)C(F)(F)F)cc2)no1 ?
output: > 100 µM (inactive)

input: Would you mind telling me what GI50 value was observed for Cc1ccsc1/C=N/Nc1cnccn1 ?
output: > 100 µM (inactive)

input: Would you mind telling me what GI50 value was observed for C=CCONC(=O)c1ccc(Cl)cc1 ?
output: > 100 µM (inactive)

input: Would you mind telling me what GI50 value was observed for CN(C)C(=S)/N=c1\sn(C)/c(=N\C(=S)N(C)C)n1C ?
output: 19.5 µM (inactive)

input: Would you mind telling me what GI50 value was observed for Cc1ccc(/N=N/C(=N/NC(=O)c2cc(Cl)ccc2C(=O)c2ccccc2)c2ccc(N(CCC#N)CCC#N)cc2C)cc1 ?
output: 15.7 µM (inactive)

input: Would you mind telling me what GI50 value was observed for CCCCCCCCCCCCCCCCCCNc1ccn(C2OC(CO)C(OP(=O)(O)OCC(COP(=O)(O)OCC3OC(n4cc(F)c(NCCCCCCCCCCCCCCCCCC)nc4=O)CC3O)OC(=O)CCCCCCCCCCCCCCC)C2O)c(=O)n1 (stereo not drawn) ?
output: > 100 µM (inactive)

input: Would you mind telling me what GI50 value was observed for NC(=O)NNC(=O)CCn1[nH]c(=O)c(Cl)c(Cl)c1=O ?
output: > 100 µM (inactive)

input: Would you mind telling me what GI50 value was observed for O=[N+]([O-])c1cccc2c1[nH]c1c(-c3ccccc3)nccc12 ?
output: 2.24 µM (inactive)

input: Would you mind telling me what GI50 value was observed for c1ccc2c[n+](CCCCCCCCCC[n+]3ccc4ccccc4c3)ccc2c1 ?
output: > 10 µM (inactive)

input: Would you mind telling me what GI50 value was observed for CCOC(=O)c1cc(C2(O)CCN(Cc3ccccc3)C2=O)c(-c2cc(C)no2)[nH]1 (stereo not drawn) ?
output: > 100 µM (inactive)

input: Would you mind telling me what GI50 value was observed for COC(=O)C12OCC34C(CC5C(C)=C(O)C(=O)CC5(C)C3C(O)C1O)OC(=O)C(OC(=O)C=C(C)C)C24 (stereo not drawn) ?
output: 228 µM (inactive)

input: Would you mind telling me what GI50 value was observed for CN(C(=O)C12C3(C(=O)C(C)(C)C)C4C5(C#N)C3C1(C(=O)C(C)(C)C)C5C42C(=O)C(C)(C)C)C(C)(C)C (stereo not drawn) ?
output: > 50 µM (inactive)

input: Would you mind telling me what GI50 value was observed for CCOC(=O)C(C#N)(Cc1c[nH]c2ccccc12)NC(C)=O (stereo not drawn) ?
output: > 100 µM (inactive)

input: Would you mind telling me what GI50 value was observed for CCC1C(=O)OCc2c1cc1n(c2=O)Cc2ccccc2-1 (stereo not drawn) ?
output: > 100 µM (inactive)

---

test system: SF-295; experiment: NCI tumour cell line growth inhibition, 48 h
Calls of active or inactive are those of the source. Cut-off read from the data, not from the text of the source: active = GI50 up to about 1.1 µM and inactive = higher.
I would appreciate it if you answered using one of these outcomes: y (active), n (inactive)

Worked set:
compound | category-label
O=C(N/N=C\c1cccs1)c1ccncc1 | n
Cc1ccc2nc(Cl)c(/C=N/N3C(=O)/C(=C/c4ccccc4S)N=C3c3ccccc3)cc2c1 | n
CC(C)(C)NC1=NC(C(F)(F)F)(C(F)(F)F)NC(=O)N1 | n
COC1(OC)CC(CO)(CNc2nc(N)nc(Cl)c2C=O)C1 | n
CCOC(=O)C(C#N)(Cc1c[nH]c2ccccc12)NC(C)=O (centres undefined) | n
c1csc(-c2csc(-c3ccsc3)c2)c1 | n
COc1ccc(OC)c(CCc2cc(OC)c(OC)cc2C)c1 | n
COc1ccccc1C[C@@H]1OC2(C=CC(=O)CC2SC(=O)c2ccccc2)O[C@H]1Cc1ccccc1OC (some centres undefined) | n

input: Would you mind telling me which call this test gave COc1ccc(C2C(Cl)C(=O)N2n2cnc3ccccc3c2=O)cc1 (centres undefined) ?
output: n

input: Would you mind telling me which call this test gave COC(=O)[C@H]1COC(=S)N1C(=O)[C@@H](C)[C@H](O)C(C)C ?
output: n

input: Would you mind telling me which call this test gave CC(C)=CCC[C@]1(C)CC[C@]2(C)C3CCC(=C(C)C)[C@@H](CCCO)[C@]3(C)CC[C@@]2(C)C1 (some centres undefined) ?
output: n

input: Would you mind telling me which call this test gave COc1ccc(NC(/C(C(=O)c2ccccc2)=C(\O)C(=O)/C=C(\O)c2ccccc2)c2ccc(OC)cc2)cc1 (centres undefined) ?
output: n

---

system: DMS-114; assay: NCI tumour cell line growth inhibition, 48 h
The source made the active and inactive calls. Cut-off read from the data, not from the text of the source: active = GI50 up to about 1.1 µM and inactive = higher.
GI50 values, listed per item

molecule | GI50
O=C1c2cc3c(cc2[C@@H]2NC4CCCC14O2)OCO3 (stereo not given in full) | > 100 µM (inactive)

Shift focus to the following entry.
input: Would you mind telling me what GI50 value was observed for O=[N+]([O-])c1cccc2c1[nH]c1c(-c3ccccc3)nccc12 ?
output: 1.27 µM (inactive)
